// Solubility lookup, one value per entry
assay: Solubility test in water and FaSSIF; format: physicochemical; conditions: FaSSIF (pH 6.5), 37° C., up to 24 hours
metric: Solubility (µg/mL)

>>> number("CC(C)(O)[C@@H]1CC[C@](C)([C@H]2[C@@H](O)C[C@@]3(C)[C@@H]4C[C@H](O)[C@H]5C(C)(C)[C@@H](O)CC[C@@]56C[C@@]46CC[C@]23C)O1 [Compound 5, reference compound]")
49
>>> number("CC(C)(O)C1CCC(C)(C2C(O)CC3(C)C4CC(OC(=O)C5CCNCC5)C5C(C)(C)C(F)(F)CCC56CC46CCC23C)O1.Cl (stereo not drawn)")
1660
>>> number("CC(C)(O)[C@@H]1CC[C@@](C)([C@H]2[C@@H](O)C[C@@]3(C)[C@@H]4C[C@H](OC(=O)COCCOCCOCCN)[C@H]5C(C)(C)C(F)(F)CC[C@@]56C[C@@]46CC[C@]23C)O1.O=C(O)C(F)(F)F")
4020
>>> number("Br.CC(C)(O)[C@@H]1CC[C@@](C)([C@H]2[C@@H](O)C[C@@]3(C)[C@@H]4C[C@H](OC(=O)[C@@H](N)CC(N)=O)[C@H]5C(C)(C)C(F)(F)CC[C@@]56C[C@@]46CC[C@]23C)O1")
3500
>>> number("CC(C)C[C@H](N)C(=O)O[C@H]1C[C@@H]2[C@]3(CC[C@]4(C)[C@@H]([C@]5(C)CC[C@@H](C(C)(C)O)O5)[C@@H](O)C[C@@]24C)C[C@@]32CCC(F)(F)C(C)(C)[C@H]12.Cl")
1850
>>> number("CC(C)(O)[C@@H]1CC[C@@](C)([C@H]2[C@@H](O)C[C@@]3(C)[C@@H]4C[C@H](OC(=O)CNC(=O)CN)[C@H]5C(C)(C)C(F)(F)CC[C@@]56C[C@@]46CC[C@]23C)O1.Cl")
4300
